Origin of measurements: the supplement of paper PMC10567573

B1: PBXIP1 (parent)
chain: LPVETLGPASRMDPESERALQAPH

Variants of: B1
PROTOCOL NOTES: protein stability index of a GFP-peptide fusion (GPS, HEK-293T) (PSI 1-6); higher = more stable;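 further: lentivirally expressed fusions sorted by FACS into six bins by GFP to DsRed ratio, PSI derived from sequencing read proportions per bin multiplied by bin number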
RUN CONDITIONS: c terminus: a fixed tail appended
Reported protein stability index is given for each of the following variants.
RECORDED METRIC: protein stability index

1. P14D: 4.44
2. P14I: 4.22
3. M12P: 4.35
4. P8W: 4.01
5. P2E: 3.99
6. D13P: 4.13
7. D13I: 4.61
8. A19W: 3.82
9. A19Y: 3.64
10. A9Y: 4.26
11. E4H: 4.79
12. P14N: 4
13. P14K: 4.43
14. P2R: 4.05
15. E4A: 5.07
16. A19R: 4.09
17. P8Q: 5.1
18. S10A: 5.14
19. S10C: 4.24
20. P2D: 5
21. E15S: 3.81
22. E15A: 4.35
23. S16W: 4.12
24. E4K: 4.99
25. E15M: 3.48
26. Q21T: 4.55
27. E17V: 4.62
28. Q21D: 4
29. T5A: 5.26
30. P2H: 4.71
31. P14V: 4.42
32. A22S: 4.36
33. R11Q: 4.09
34. S10K: 5.32
35. P2V: 3.33
36. D13N: 4.66
37. P2Y: 3.13
38. E15L: 4.03
39. E15R: 4.19
40. A19E: 4.68
41. D13V: 4.38
42. R18Q: 4.55
43. R11M: 3.96
44. L1T: 4.64
45. H24P: 4.03
46. L1F: 4.61
47. T5H: 4.72
48. E15Y: 3.95
49. E4L: 3.49
50. A19D: 4.41
51. A22K: 4.4
52. L6T: 5.37
53. L20N: 4.42
54. V3R: 4.27
55. E17D: 3.97
56. M12E: 4.46
57. L20M: 4.45
58. P14T: 4.37
59. S10F: 3.75
60. P14Q: 4.75
61. P8M: 4.16
62. E15H: 4.13
63. M12D: 4.95
64. L1Y: 5.17
65. Q21K: 4.28
66. L6M: 5.3
67. M12H: 4.11
68. S10V: 4.44
69. V3Q: 5.07
70. P2G: 4.98
71. L20F: 4.28
72. P23R: 4.66
73. L1V: 4.65
74. P14H: 3.61
75. E15P: 3.92
76. Q21V: 4.39
